FYI, the data here is from patent US8030300B2.

target: α2β2 nAChR subtype (Rattus norvegicus, UniProt P12389+P12390); construct: expressed in transfected cells; assay: biochemical; assay type: binding; details: Ki α2β2, Table 4, bivalent analogues
Sequence (P12390 25-500): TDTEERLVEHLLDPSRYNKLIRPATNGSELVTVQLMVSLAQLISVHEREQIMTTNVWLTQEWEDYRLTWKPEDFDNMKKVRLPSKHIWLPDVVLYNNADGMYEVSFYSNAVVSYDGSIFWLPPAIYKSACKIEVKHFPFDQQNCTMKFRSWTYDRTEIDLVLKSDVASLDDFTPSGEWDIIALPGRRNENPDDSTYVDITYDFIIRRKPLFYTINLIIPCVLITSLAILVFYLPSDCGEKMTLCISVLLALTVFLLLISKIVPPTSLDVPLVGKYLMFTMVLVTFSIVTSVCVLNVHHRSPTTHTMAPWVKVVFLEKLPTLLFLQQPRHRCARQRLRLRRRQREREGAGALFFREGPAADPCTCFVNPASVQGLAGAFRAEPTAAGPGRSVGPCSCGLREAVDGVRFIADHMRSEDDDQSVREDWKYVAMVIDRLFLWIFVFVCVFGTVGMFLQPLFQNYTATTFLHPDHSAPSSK
Sequence (P12389 28-511): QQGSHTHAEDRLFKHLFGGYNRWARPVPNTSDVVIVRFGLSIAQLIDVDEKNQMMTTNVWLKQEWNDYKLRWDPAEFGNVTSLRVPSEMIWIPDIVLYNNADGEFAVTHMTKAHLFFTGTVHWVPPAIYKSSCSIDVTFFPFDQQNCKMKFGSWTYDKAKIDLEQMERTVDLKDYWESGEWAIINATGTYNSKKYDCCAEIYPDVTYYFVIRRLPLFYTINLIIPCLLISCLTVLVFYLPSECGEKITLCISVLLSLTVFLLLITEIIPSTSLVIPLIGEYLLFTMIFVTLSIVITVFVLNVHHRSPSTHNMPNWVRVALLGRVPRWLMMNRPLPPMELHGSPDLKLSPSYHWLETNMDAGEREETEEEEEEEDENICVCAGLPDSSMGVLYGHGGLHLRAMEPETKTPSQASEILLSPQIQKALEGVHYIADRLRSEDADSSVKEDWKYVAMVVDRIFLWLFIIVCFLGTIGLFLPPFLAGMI
Would you kindly list pKi for each of these molecules?
One number for each entry, as −log10 of the molar value.

Could you report pKi for every entry in the following list?
1. Clc1ccc(C2CC3CCC2N3CCN2C3CCC2C(c2ccc(Cl)nc2)C3)cn1 (stereo not shown) [Ligand 59a]
2. Clc1ccc(C2CC3CCC2N3CCCCCCCCCCN2C3CCC2C(c2ccc(Cl)nc2)C3)cn1 (stereo not shown) [Ligand 59d]
3. Clc1ccc(C2CC3CCC2N3CCCN2C3CCC2C(c2ccc(Cl)nc2)C3)cn1 (stereo not shown) [Ligand 59b]
4. Clc1ccc(C2CC3CCC2N3CCCCCCN2C3CCC2C(c2ccc(Cl)nc2)C3)cn1 (stereo not shown) [Ligand 59c]

1. 8.89
2. 8.24
3. 8.21
4. 8.39

###

target: α2β2 nAChR subtype (Rattus norvegicus, UniProt P12389+P12390); construct: expressed in transfected cells; assay: biochemical; format: binding; conditions: Ki α2β2, Table 5; rat nAChR subtypes
measure: pKi
One number for each entry, as −log10 of the molar value.

Consider the following illustrative entries.
compound="c1cncc(OC[C@@H]2CCN2)c1 [Ligand A-85380, reference compound]" measure=pKi observed_result=10.14
compound="O=C1CC2NC1CC2c1ccc(Cl)nc1 (stereo not shown) [Ligand 4]" measure=pKi observed_result=6.19
compound="CN1CCC[C@H]1COc1cccnc1 [Ligand 8, reference compound]" measure=pKi observed_result=8.97
compound="Clc1ccc(C2CC3CCC2N3CCN2C3CCC2CC3)cn1 (stereo not shown) [ZW-84]" measure=pKi observed_result=8.15
compound="COC(=O)c1nc(Cl)ccc1C1CC2CCC1N2 (stereo not shown) [ZW-96]" measure=pKi observed_result=5.27

Could you report pKi for every entry in the following list?
1. OC1CC2CC(c3ccc(Cl)nc3)C1N2 (stereo not shown) [Ligand 8]
2. O[C@H]1C[C@H]2N[C@@H]1C[C@@H]2c1ccc(Cl)nc1 (relative stereo) [Ligand 6]
3. CCCCCC#Cc1ccc(C2CC3CCC2N3)cn1 (stereo not shown) [Ligand 34]
4. Clc1cc2c(cn1)C1C3CCC(N3)C1CC2 (stereo not shown) [Ligand 37a]
5. OCCCCC#Cc1cncc(OC[C@@H]2CCCN2)c1 [Ligand 27]
6. OC1C2CCC(N2)C1c1ccc(Cl)nc1 (single isomer, unassigned) [Ligand 3]
7. OC1C2CCC(N2)C1c1ccc(Cl)nc1 (single isomer, unassigned) [Ligand 2]
8. O[C@H]1C[C@H]2C[C@H](c3ccc(Cl)nc3)[C@@H]1N2 (relative stereo) [Ligand 9]

8.20
7.77
7.77
6.53
8.82
8.60
6.09
8.81

Could you report pKi for every entry in the following list?
1. CCCCCc1cncc(C2CC3CCC2N3)c1 (stereo not shown) [ZW-95]
2. OCCCCC#Cc1cncc(C2CC3CCC2N3)c1 (stereo not shown) [Ligand 31]
3. OCCCCC#Cc1cncc(OC[C@@H]2CCN2)c1 [Ligand 26]
4. O=C1CC2CC(c3ccc(Cl)nc3)C1N2 (stereo not shown) [Ligand 5]
5. FC1CC2NC1CC2c1ccc(Cl)nc1 (stereo not shown) [Ligand 10]
6. OC1CC2NC1CC2c1ccc(Cl)nc1 (stereo not shown) [Ligand 7]
7. FC1CC2CC(c3ccc(Cl)nc3)C1N2 (stereo not shown) [Ligand 11]
8. FCCCCC#Cc1cncc(OC[C@@H]2CCCN2)c1 [Ligand 42]

1. 9.49
2. 9.45
3. 10.22
4. 6.00
5. 9.06
6. 7.03
7. 9.66
8. 8.46

###

biological target: α4β4 nAChR subtype (Rattus norvegicus, UniProt P09483+P12392); construct: expressed in transfected cells; test: biochemical; format: binding; settings: read-out: Ki α4β4; Table 5; rat nAChR subtypes
Sequence (P12392 21-495): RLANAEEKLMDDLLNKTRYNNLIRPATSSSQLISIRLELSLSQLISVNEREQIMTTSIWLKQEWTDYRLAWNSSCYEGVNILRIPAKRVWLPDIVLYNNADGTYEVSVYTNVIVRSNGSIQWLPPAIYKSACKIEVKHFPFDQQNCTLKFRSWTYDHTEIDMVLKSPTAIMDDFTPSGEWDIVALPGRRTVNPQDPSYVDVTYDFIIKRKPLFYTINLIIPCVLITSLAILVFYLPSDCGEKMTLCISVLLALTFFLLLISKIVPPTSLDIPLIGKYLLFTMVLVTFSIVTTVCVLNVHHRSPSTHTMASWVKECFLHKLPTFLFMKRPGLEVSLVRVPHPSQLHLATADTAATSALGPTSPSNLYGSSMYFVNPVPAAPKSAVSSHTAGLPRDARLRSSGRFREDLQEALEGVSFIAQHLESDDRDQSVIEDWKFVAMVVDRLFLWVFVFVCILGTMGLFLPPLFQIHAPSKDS
Sequence (P09483 31-630): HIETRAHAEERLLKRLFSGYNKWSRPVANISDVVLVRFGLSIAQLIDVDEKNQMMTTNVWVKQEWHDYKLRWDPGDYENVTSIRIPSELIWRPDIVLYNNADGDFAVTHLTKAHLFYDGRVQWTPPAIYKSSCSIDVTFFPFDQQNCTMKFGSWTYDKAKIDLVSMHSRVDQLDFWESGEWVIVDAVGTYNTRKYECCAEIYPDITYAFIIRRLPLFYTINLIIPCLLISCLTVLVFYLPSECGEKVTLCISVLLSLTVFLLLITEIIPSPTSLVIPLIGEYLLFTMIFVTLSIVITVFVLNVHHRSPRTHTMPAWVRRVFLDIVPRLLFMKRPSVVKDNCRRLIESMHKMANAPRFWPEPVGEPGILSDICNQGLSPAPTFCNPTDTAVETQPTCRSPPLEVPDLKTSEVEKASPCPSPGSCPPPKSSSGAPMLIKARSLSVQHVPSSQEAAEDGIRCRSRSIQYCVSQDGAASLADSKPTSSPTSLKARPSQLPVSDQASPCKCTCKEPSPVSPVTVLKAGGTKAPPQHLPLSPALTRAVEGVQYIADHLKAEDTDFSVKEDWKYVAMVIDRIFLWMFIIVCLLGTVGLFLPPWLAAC
measure: pKi
Answers are plain numbers, as −log10 of the molar value.

# return recorded pKi for entry CN1CCC[C@H]1COc1cncc(C#CCNC(=O)OC(C)(C)C)c1
5.08

###

molecular target: α3β4 nAChR subtype (Rattus norvegicus, UniProt P04757+P12392); construct: expressed in transfected cells; experiment: biochemical; format: binding; settings: Ki α3β4, Table 5; rat nAChR subtypes
Sequence (P04757 26-499, one chain of several): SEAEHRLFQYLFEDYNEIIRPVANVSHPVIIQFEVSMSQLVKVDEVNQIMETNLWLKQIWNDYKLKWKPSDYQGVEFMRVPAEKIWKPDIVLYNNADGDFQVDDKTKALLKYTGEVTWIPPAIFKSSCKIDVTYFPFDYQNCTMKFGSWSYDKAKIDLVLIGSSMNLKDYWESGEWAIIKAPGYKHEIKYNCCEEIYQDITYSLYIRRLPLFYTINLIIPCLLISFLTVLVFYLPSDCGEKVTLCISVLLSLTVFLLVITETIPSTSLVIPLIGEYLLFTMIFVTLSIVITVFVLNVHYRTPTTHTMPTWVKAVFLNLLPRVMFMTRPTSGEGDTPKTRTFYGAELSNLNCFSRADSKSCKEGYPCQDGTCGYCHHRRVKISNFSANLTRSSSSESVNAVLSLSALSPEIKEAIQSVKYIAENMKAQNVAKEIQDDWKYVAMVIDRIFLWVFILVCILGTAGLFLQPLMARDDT
Would you kindly list pKi for each of these molecules?
Numbers only, as −log10 of the molar value.

molecule="Clc1ccc(C2CC3CC4(OCCO4)C2N3)cn1 (centres unmarked)" observed_result=6.76
molecule="Clc1cc2c(cn1)C1(CC2)CC2CCC1N2 (centres unmarked) [Ligand 58a]" observed_result=4.44

Could you report pKi for every entry in the following list?
1. FC1CC2NC1CC2c1ccc(Cl)nc1 (centres unmarked)
2. OCCCCC#Cc1cncc(OC[C@@H]2CCN2)c1
3. Clc1ccc(C2CC3CCC2N3CCN2C3CCC2CC3)cn1 (centres unmarked)

1: 7.98; 2: 5.32; 3: 7.17

Could you report pKi for every entry in the following list?
1. Clc1ccc2c(n1)CCC21CC2CCC1N2 (centres unmarked) [Ligand 58b]
2. OCCCCC#Cc1cncc(OC[C@@H]2CCCN2)c1
3. CN1CCC[C@H]1COc1cccnc1 [Ligand 8, reference compound]
4. OC1C2CCC(N2)C1c1ccc(Cl)nc1 (single isomer, unassigned) [Ligand 2]

[4.83, 4.79, 6.08, 5.93]

Could you report pKi for every entry in the following list?
1. OCCCCC#Cc1cncc(C2CC3CCC2N3)c1 (centres unmarked)
2. COC(=O)c1nc(Cl)ccc1C1CC2CCC1N2 (centres unmarked)

1: 6.58; 2: 4.97

###

target: α3β2 nAChR subtype (Rattus norvegicus, UniProt P04757+P12390); construct: expressed in transfected cells; assay: biochemical; type: binding; settings: Table 6; [3H]-EB 0.099 nM, 0.091 nM; ligand 0.00197-100 μM; n = 1; read-out: Ki α3β2
Sequence (P12390 25-500): as the sequence (P12390 25-500) above
Sequence (P04757 26-499): as the sequence (P04757 26-499, one chain of several) above
measure: pKi
Numbers only, as −log10 of the molar value.

Could you report pKi for every entry in the following list?
1. CN1CCC[C@H]1COc1cncc(C#CCCCCCCCCO)c1 [Ligand 17]
2. CN1CCC[C@H]1COc1cncc(C#CCO)c1 [Ligand 14]
3. C#Cc1cncc(OC[C@@H]2CCCN2C)c1 [Ligand 18]
4. CN1CCC[C@H]1COc1cncc(C#CC(C)(C)O)c1 [Ligand 15]

1: 7.28; 2: 8.12; 3: 7.97; 4: 7.71

Could you report pKi for every entry in the following list?
1. CN1CCC[C@H]1COc1cncc(C#CCCCCO)c1 [Ligand 16]
2. CN1CCC[C@H]1COc1cncc(CCCCCCO)c1 [Ligand 19]

7.90
7.87

###

target: α4β2 nAChR subtype (Rattus norvegicus, UniProt P09483+P12390); construct: expressed in transfected cells; test: biochemical; assay type: binding; details: Ki α4β2, Table 3; mean of 3 independent measurements
Sequence (P12390 25-500, one chain of several): as the sequence (P12390 25-500) above
measure: pKi
Answers are plain numbers, as −log10 of the molar value.

# return recorded pKi for entry OCCCCC#Cc1ccc(C2CC3CCC2N3)cn1 (stereo not shown)
7.17

###

target: α4β4 nAChR subtype (Rattus norvegicus, UniProt P09483+P12392); construct: expressed in transfected cells; assay: biochemical; format: binding; settings: Table 3; mean ± SEM of 3 (nicotine, 1: 3 to 6) independent measurements; read-out: Ki α4β4
measure: pKi
Numbers only, as −log10 of the molar value.

Consider the following illustrative entries.
molecule="Clc1ccc2c(n1)CCC1C3CCC(N3)C21 (stereo not shown) [Ligand 37b]" system="α4β4 nAChR subtype (Rattus norvegicus, UniProt P09483+P12392)" observed_result=7.39
molecule="Clc1ccc2c(n1)CCC21CC2CCC1N2 (stereo not shown) [Ligand 58b]" system="α4β4 nAChR subtype (Rattus norvegicus, UniProt P09483+P12392)" observed_result=5.02
molecule="Clc1cc2c(cn1)C1(CC2)CC2CCC1N2 (stereo not shown) [Ligand 58a]" system="α4β4 nAChR subtype (Rattus norvegicus, UniProt P09483+P12392)" observed_result=4.98

# return recorded pKi for entry Clc1cc2c(cn1)C1C3CCC(N3)C1CC2 (stereo not shown) [Ligand 37a]
6.20

###

Would you kindly list Ki for each of these compounds?
target: α4β4 nAChR subtype (Rattus norvegicus, UniProt P09483+P12392); construct: expressed in transfected cells; experiment: biochemical; format: binding; conditions: Ki α4β4, Table 6; [3H]-EB 0.099 nM, 0.091 nM; ligand 0.00197-100 μM; n = 1
Answers are plain numbers, in nM.

compound="CN1CCC[C@H]1COc1cccnc1 [Ligand 8, reference compound]" system="α4β4 nAChR subtype (Rattus norvegicus, UniProt P09483+P12392)" measure=Ki unit_symbol=nM observed_result=205

Pending compound:
# return recorded Ki for entry c1cncc(OC[C@@H]2CCN2)c1 [Ligand A-85380, reference compound]
8.04
